- Test Protocol: Human HepG2 cell viability assay in 384 well format
- Assay type: toxicity, cell-based
- Parameters: dose 125 nL, time 70.5 hour; concentration not given beside the values
- Protocol Conditions: HepG2 cells, read-out: Inhibition
Readout: cytotoxicity at 70.5 h (%)
Your answer should be a plain number; it is taken to be in %.

Here are 6 compounds together with their reported answers.
>  <Compound>
Cc1ccc(C)c(OCc2cc(C(=O)N(C)CC(O)CO)no2)c1 (stereo not given)

>  <cytotoxicity at 70.5 h (%)>
-4.59

$$$$
>  <Compound>
CCC(CO)(CO)NC(=O)C1CCC(=O)N(CCc2ccccc2)C1 (stereo not given)

>  <cytotoxicity at 70.5 h (%)>
-10.4

$$$$
>  <Compound>
CN(C)C(=O)CN1CCOCC2(C1)CN(c1ncccn1)CCO2 (stereo not given)

>  <cytotoxicity at 70.5 h (%)>
16.4

$$$$
>  <Compound>
CCOC(=O)c1c(NC(=O)CN2CCN(C(C)=O)CC2)sc2c1CCC2

>  <cytotoxicity at 70.5 h (%)>
-0.965

$$$$
>  <Compound>
CNc1ncccc1C(=O)N1CCCC2(CCN(C)CC2)CC1

>  <cytotoxicity at 70.5 h (%)>
-1.7

$$$$
>  <Compound>
Cc1cc(C)nc(N2CC[C@H](Oc3ccccc3F)[C@@H](O)CC2)n1

>  <cytotoxicity at 70.5 h (%)>
-3.75

$$$$

I would be grateful if you could share the reported cytotoxicity at 70.5 h for `CCc1cnc(N2C[C@H]3CN(Cc4ccc(OC)cc4)C(=O)[C@H]3C2)nc1` .
-2.79

I would be grateful if you could share the reported cytotoxicity at 70.5 h for CCS(=O)(=O)NC(C(=O)NC)c1ccc(F)c(F)c1 (stereo not given) .
2.45

I would be grateful if you could share the reported cytotoxicity at 70.5 h for `Cc1cc(C(=O)NCc2csc(N(C)C)n2)c2ccc(C)c(C)c2n1` .
0.264

###

- Test Protocol: Human HepG2 cell viability assay in 384 well format
- Format: toxicity, cell-based
- Set-up: dose 125 nL, time 70.5 hour; concentration not given beside the values
- Protocol Conditions: HepG2 cells, read-out: Inhibition
Listing: cytotoxicity at 70.5 h of selected compounds
Your answer should be a plain number; it is taken to be in %.

Here are 4 compounds together with their reported answers.
>  <Compound>
Cc1[nH]c(=O)[nH]c(=O)c1CN1CCCC(CCc2ccc(F)c(F)c2)C1 (stereo unspecified)

>  <Result Units>
%

>  <Reported Value>
-10.6

$$$$
>  <Compound>
Cn1nc(C(=O)N2CC(Oc3nc4c(Cl)cccc4s3)C2)ccc1=O

>  <Result Units>
%

>  <Reported Value>
-8.11

$$$$
>  <Compound>
O=C(O)c1ncccc1N1CCCCC1

>  <Result Units>
%

>  <Reported Value>
-14.8

$$$$
>  <Compound>
O=C(NCc1nccn1CCc1ccccc1)NCC1(O)CCC1

>  <Result Units>
%

>  <Reported Value>
1.18

$$$$

I would be grateful if you could share the reported cytotoxicity at 70.5 h for `Cc1nc(CN2CCN(CCCc3nc4ccccc4o3)CC2)no1` .
-0.419

I would be grateful if you could share the reported cytotoxicity at 70.5 h for `c1ccc(CN2CCC(NCCc3ccc4c(c3)CCO4)CC2)nc1` .
0.552

I would be grateful if you could share the reported cytotoxicity at 70.5 h for `CCN(CC(=O)NC(C)C)C(=O)c1ccc(-c2ccsc2)nc1C` .
-3.6

I would be grateful if you could share the reported cytotoxicity at 70.5 h for Cc1cccc(C2(C(=O)NCC3CCN(CC(F)(F)F)C3)CCC2)c1 (stereo unspecified) .
-1.39

I would be grateful if you could share the reported cytotoxicity at 70.5 h for c1cncc(N2CCOCC3(CCCN(c4nncs4)C3)C2)c1 (stereo unspecified) .
-21.7

###

- Test Protocol: Human HepG2 cell viability assay in 384 well format
- Type: toxicity, cell-based
- Set-up: dose 125 nL, time 70.5 hour; concentration not given beside the values
- Protocol Conditions: HepG2 cells, read-out: Inhibition
Readout: cytotoxicity at 70.5 h (%)
Your answer should be a plain number; it is taken to be in %.

Here are 5 compounds together with their reported answers.
>  <Compound>
CN(C)CCN(Cc1cccc(C(F)(F)F)c1)C(=O)c1cc[nH]n1

>  <cytotoxicity at 70.5 h, %>
-3.41

$$$$
>  <Compound>
Cc1cccc(S(=O)(=O)NCc2cccc(CS(C)(=O)=O)c2)c1

>  <cytotoxicity at 70.5 h, %>
9.39

$$$$
>  <Compound>
Cc1cc(C)n(CC2CCCN2C(=O)c2ccc3[nH]nnc3c2)n1 (stereo not given)

>  <cytotoxicity at 70.5 h, %>
0.633

$$$$
>  <Compound>
CN(Cc1ccc(C(=O)O)cc1)C(=O)c1sccc1OC(F)F

>  <cytotoxicity at 70.5 h, %>
3.59

$$$$
>  <Compound>
CC(NC(=O)Cc1ccccc1F)C(=O)N1CCS(=O)(=O)CC1 (stereo not given)

>  <cytotoxicity at 70.5 h, %>
-3.35

$$$$

I would be grateful if you could share the reported cytotoxicity at 70.5 h for `CNC(=O)[C@H]1C[C@H]2OCC[C@H]2N(CC2CCOCC2)C1` .
-8.61

I would be grateful if you could share the reported cytotoxicity at 70.5 h for Cc1nc(NCC2CC2)nc2c1COCC21CCN(C)C1 (stereo not given) .
-3.52

I would be grateful if you could share the reported cytotoxicity at 70.5 h for `Cc1nc(C2CCN(S(=O)(=O)c3ccc4c(c3)CCO4)CC2)n[nH]1` .
0.662

I would be grateful if you could share the reported cytotoxicity at 70.5 h for `Cc1c(C(=O)N2CC(C)(C)C2(C)C)nnn1-c1cccc2cnccc12` .
-2.78

I would be grateful if you could share the reported cytotoxicity at 70.5 h for `CC(C)[C@@H]1CN(C(=O)NCc2ccco2)C[C@H]1NS(=O)(=O)N(C)C` .
17.9

I would be grateful if you could share the reported cytotoxicity at 70.5 h for CC(C)N(C)C(=O)C1=NOC2(CCN(C(=O)c3cccn3C)C2)C1 (stereo not given) .
24.9

I would be grateful if you could share the reported cytotoxicity at 70.5 h for `O=C(c1ccc[nH]1)N1CCn2cc(Cn3cccn3)nc2C1` .
-8.4

###

- Test Protocol: Human HepG2 cell viability assay in 384 well format
- Type: toxicity, cell-based
- Design: dose 125 nL, time 70.5 hour; concentration not given beside the values
- Protocol Conditions: HepG2 cells, read-out: Inhibition
Listing: cytotoxicity at 70.5 h of selected compounds
Your answer should be a plain number; it is taken to be in %.

Here are 3 compounds together with their reported answers.
>  <Compound>
Cc1cccnc1CC(C)NC1CCSCC1 (stereo unspecified)

>  <Result Units>
%

>  <cytotoxicity at 70.5 h>
-3.02

$$$$
>  <Compound>
Cn1cc(CN2C[C@H]3CCN(C(=O)c4cscn4)C[C@H]3C2)cn1

>  <Result Units>
%

>  <cytotoxicity at 70.5 h>
27.4

$$$$
>  <Compound>
COCCNC(=O)NCc1cc(-c2cccs2)n(C2CCCC2)n1

>  <Result Units>
%

>  <cytotoxicity at 70.5 h>
-8.68

$$$$

I would be grateful if you could share the reported cytotoxicity at 70.5 h for c1cncc(N2CCOC3(CCCN(c4nncs4)C3)C2)c1 (stereo unspecified) .
-7.3

I would be grateful if you could share the reported cytotoxicity at 70.5 h for `COCCNC(=O)CN(C)CCn1nc2ccccn2c1=O` .
-5.55

###

Listing: cytotoxicity at 70.5 h of selected compounds
- Test Protocol: Human HepG2 cell viability assay in 384 well format
- Assay type: toxicity, cell-based
- Set-up: dose 125 nL, time 70.5 hour; concentration not given beside the values
- Protocol Conditions: HepG2 cells, read-out: Inhibition
Your answer should be a plain number; it is taken to be in %.

>  <Compound>
O=C(c1cc(-n2cnnn2)ccc1Cl)N1CCCCCC1

>  <cytotoxicity at 70.5 h / %>
-2.04

$$$$
>  <Compound>
O=C1CN(C(=O)C2CCOCC2)CCN1Cc1ccc(Cl)cc1

>  <cytotoxicity at 70.5 h / %>
0.576

$$$$
>  <Compound>
CNC(=O)NC1CC2(CCNCC2)c2ccc(C)cc21 (centres undefined)

>  <cytotoxicity at 70.5 h / %>
18.2

$$$$

// next entry
I would be grateful if you could share the reported cytotoxicity at 70.5 h for `Cc1cc(C)n(C2CN(CCC(=O)NCCc3ccccc3)C2)n1` .
-1.03

###

- Test Protocol: Human HepG2 cell viability assay in 384 well format
- Format: toxicity, cell-based
- Set-up: dose 125 nL, time 70.5 hour; concentration not given beside the values
- Protocol Conditions: HepG2 cells, read-out: Inhibition
Listing: cytotoxicity at 70.5 h of selected molecules
Your answer should be a plain number; it is taken to be in %.

Here are 2 molecules together with their reported answers.
>  <Molecule>
COc1ccc(CCCN2C(=O)O[C@@H]3CN(C4CCOCC4)C[C@@H]32)cc1

>  <cytotoxicity at 70.5 h [%]>
-3.64

$$$$
>  <Molecule>
O=C(COc1ccccc1C(F)(F)F)NCCNC(=O)c1ccccc1

>  <cytotoxicity at 70.5 h [%]>
12.9

$$$$

// next entry
I would be grateful if you could share the reported cytotoxicity at 70.5 h for `Cn1ccnc1CN1CCN(CC2CC2)[C@@H]2CS(=O)(=O)C[C@@H]21` .
-7.65

src = ChEMBL document CHEMBL3507680
